assay: Binding affinity to EV71 3C protease A144S mutant after 1 hr by intrinsic fluorescence quenching assay; design: species or system Enterovirus A71
measurementName: pKd
Field pKd (float): negative decimal logarithm of the concentration in molar.

Please give the measured pKd for this compound: c1ccc(CNc2ccc(-c3nc4ncccc4o3)cc2)nc1
5.20

* * *

tested on: Enterovirus A71; assay: Inhibition of recombinant N-terminal 6His-tagged EV71 3C protease expressed in Escherichia coli Rosetta using substrate Dabcyl-RTATVQGPSLDFE-Edans at 50 uM after 30 mins by fluorescence assay
Mark -1 for inhibition values under 10%, and 1 for everything at or above.

{"columns": ["smilesStructure", "discreteLabel"],
 "data": [
  ["Cc1ccc2oc(-c3ccc(NCc4ccccn4)c(F)c3)nc2n1", -1],
  ["Cc1ccc2oc(Cc3ccc(NCc4ccccn4)cc3)nc2n1", 1],
  ["Cc1cccc(CNc2ccc(-c3nc4ncccc4o3)cc2F)n1", 1],
  ["c1ccc(CNc2ccc(-c3nc4ncccc4o3)cc2)nc1", 1],
  ["Cc1cccc(CNc2ccc(Cc3nc4nc(C)ccc4o3)cc2)n1", -1]
]}

Decide: inhibition of Fc1cc(-c2nc3ncccc3o2)ccc1NCc1ccccn1 >= 10%?
-1

Decide: inhibition of Cc1cccc(CNc2ccc(Cc3nc4ncccc4o3)cc2)n1 >= 10%?
1

Decide: inhibition of Cc1cccc(CNc2ccc(-c3nc4nc(C)ccc4o3)cc2F)n1 >= 10%?
-1

Decide: inhibition of Cc1ccc2oc(-c3ccc(NCc4ccccn4)cc3)nc2n1 >= 10%?
1

Decide: inhibition of Cc1cccc(CNc2ccc(-c3nc4ncccc4o3)cc2Cl)n1 >= 10%?
1

Decide: inhibition of Cc1cccc(CNc2ccc(-c3nc4nc(C)ccc4o3)cc2)n1 >= 10%?
-1

Decide: inhibition of Cc1ccc2oc(-c3ccc(NCc4ccccn4)c(Cl)c3)nc2n1 >= 10%?
-1

Decide: inhibition of Cc1cccc(CNc2ccc(-c3nc4nc(C)ccc4o3)cc2Cl)n1 >= 10%?
1

Decide: inhibition of c1ccc(CNc2ccc(Cc3nc4ncccc4o3)cc2)nc1 >= 10%?
1

Decide: inhibition of CCOC(=O)/C=C/[C@H](C[C@@H]1CCNC1=O)NC(=O)[C@@H](CC(=O)[C@@H](NC(=O)c1cc(C)on1)C(C)C)Cc1ccc(F)cc1 >= 10%?
1

Decide: inhibition of Cc1cccc(CNc2ccc(-c3nc4ncccc4o3)cc2)n1 >= 10%?
1

Decide: inhibition of Clc1cc(-c2nc3ncccc3o2)ccc1NCc1ccccn1 >= 10%?
-1

* * *

system: Enterovirus A71; experiment: Antiviral activity against EV71 infected in human RD cells assessed as protection against virus infection after 72 hrs by MTS assay; format: functional, cell-based; details: Enterovirus A
measurementName: pEC50
Field pEC50 (float): negative decimal logarithm of the concentration in molar.

{"columns": ["smilesStructure", "pEC50"],
 "data": [
  ["COc1cc(-c2cc(=O)c3c(O)cc(OP(=O)(OC(C)C)OC(C)C)cc3o2)cc(OC)c1O", 5.04]
]}

Note: attention shifts to another entry.
Please give the measured pEC50 for this molecule: O=c1cc(-c2ccccc2)oc2cc(O)cc(O)c12
4.80

* * *

test: Binding affinity to EV71 3C protease F25W mutant after 1 hr by intrinsic fluorescence quenching assay; design: species or system Enterovirus A71
measurementName: Kd

Please give the measured Kd for this molecule: c1ccc(CNc2ccc(-c3nc4ncccc4o3)cc2)nc1
12.1 µM

* * *

assay: Inhibition of recombinant N-terminal 6His-tagged EV71 3C protease expressed in Escherichia coli Rosetta using substrate Dabcyl-RTATVQGPSLDFE-Edans preincubated for 30 mins followed by substrate addition; set-up: species or system Enterovirus A71
IC50 vs 30 µM: less than gives Met; not less than gives Not met.

Study these solved cases before continuing.
{"columns": ["smilesStructure", "discreteLabel"],
 "data": [
  ["Cc1cccc(CNc2ccc(-c3nc4ncccc4o3)cc2)n1", "Not met"],
  ["Cc1cccc(CNc2ccc(Cc3nc4ncccc4o3)cc2)n1", "Not met"],
  ["c1ccc(CNc2ccc(-c3nc4ncccc4o3)cc2)nc1", "Met"],
  ["c1ccc(CNc2ccc(Cc3nc4ncccc4o3)cc2)nc1", "Not met"]
]}

--- query ---
Problem: For the compound CCOC(=O)/C=C/[C@H](C[C@@H]1CCNC1=O)NC(=O)[C@@H](CC(=O)[C@@H](NC(=O)c1cc(C)on1)C(C)C)Cc1ccc(F)cc1 , is IC50 under 30 µM?
Met

* * *

assay: Cytotoxicity against African green monkey Vero cells after 48 hrs by MTT assay; type: toxicity, cell-based; details: chlorocebus sabaeus
measurementName: CC50 at 48 h (µM)
Please respond with the number in µM and leave the unit unwritten.

Please give the measured CC50 at 48 h for this molecule: C#C[C@@]1(O)[C@H](O)[C@@H](CO)O[C@H]1n1ccc2c(N)ncnc21
120

* * *

assay: Binding affinity to EV71 3C protease F25A mutant after 1 hr by intrinsic fluorescence quenching assay; set-up: species or system Enterovirus A71
measurementName: pKd
Field pKd (float): negative decimal logarithm of the concentration in molar.

Please give the measured pKd for this molecule: c1ccc(CNc2ccc(-c3nc4ncccc4o3)cc2)nc1
4.60

Values were extracted from ChEMBL document CHEMBL3877288.
